Tested on: HT-29
Test: NCI tumour cell line growth inhibition, 48 h
Activity calls are given as the source filed them. Cut-off read from the data, not from the text of the source: active = GI50 up to about 1.1 µM and inactive = higher.
recorded-endpoint: GI50

In [3]: df
Out[3]:
                                   compound  study_system  recorded_endpoint                  val
0  COC1(OC)N=C(N)C2(C#N)/C(=N/N(C)C)CC(C)C12C#N (stereo unspecified)         HT-29               GI50  > 100 µM (inactive)
1  COc1cc(C2C3=C(CCCC3=O)N(c3ccc(C)cc3)C3=C2C(=O)CCC3)c([N+](=O)[O-])cc1OC         HT-29               GI50   59.4 µM (inactive)
2  COc1ccc(-c2ccc(C(=O)C=P(c3ccccc3)(c3ccccc3)c3ccccc3)cc2)cc1         HT-29               GI50   6.05 µM (inactive)
3           O=C1NC(N2CCOCC2)=N/C1=C\c1ccco1         HT-29               GI50  > 100 µM (inactive)
4  O=C1C(Cl)=C(Cl)C(Cl)(Cl)C(Cl)C1(Cl)Cl (stereo unspecified)         HT-29               GI50   24.5 µM (inactive)

Note: attention shifts to another entry.
# input Look up and state reported GI50 for COP(C)(=O)C1=CCN(C(=O)OCC[Si](C)(C)C)CC1 (stereo unspecified)
# output > 100 µM (inactive)

====

Test system: HOP-62
Assay: NCI tumour cell line growth inhibition, 48 h
Calls of active or inactive are those of the source. Cut-off read from the data, not from the text of the source: active = GI50 up to about 1.1 µM and inactive = higher.
Outcome field: choose from t (active), f (inactive)

# input # lookup: test call for Cc1ccc(-c2cc(-c3ccco3)c(C#N)c(=O)n2C2OC(OC(=O)c3ccccc3)C(OC(=O)c3ccccc3)C2OC(=O)c2ccccc2)cc1 (stereo not given)
# output f

# input # lookup: test call for `CC(C)/C(Cl)=N\OC(=O)Nc1ccc(F)cc1F`
# output f

# input # lookup: test call for `CN(/N=C/c1ccc(Cl)c(Cl)c1)C1=NCCCCN1`
# output f

# input # lookup: test call for C=C1C(=O)O[C@H]2C[C@@H]1C(=O)CC(C)CCCC(C)=CCC[C@@]2(C)O (stereo not given in full)
# output f

# input # lookup: test call for CC1=C(N2CC2)C(=O)c2nc3n(c2C1=O)CCC3O (stereo not given)
# output t

====

System: M14
Assay: NCI tumour cell line growth inhibition, 48 h
Activity calls are given as the source filed them. Rule as the data show it: active = GI50 up to about 1.1 µM and inactive = higher.
Outcome field: choose from TRUE (active), FALSE (inactive)

Worked set:
molecule	group-label
C/C=C/C=C/c1nc(C#N)c(N)o1	FALSE
O=C1O[C@H](COC(=O)c2ccccc2)[C@@H](OC(=O)c2ccccc2)C=C1OC(=O)c1ccccc1	FALSE
CN(C)Cc1cc(C(=O)/C=C/c2ccc(O)cc2)cc(CN(C)C)c1O	FALSE
Cc1cc(C)cc(NC(=O)CCC(=O)C2CCC/C2=N\NC(=O)C(=O)NN)c1 (stereo not drawn)	FALSE
CN[C@@H](C)[C@H](NC)c1ccccc1	FALSE
COC(=O)C1=CSC2(S1)C(C(=O)OC)=CSc1c2ssc1=O (stereo not drawn)	FALSE

# input # lookup: test call for CC1(C)OC2C(=O)C=C(COCc3ccccc3)C2O1 (stereo not drawn)
# output FALSE

# input # lookup: test call for `CN(C)CCCNc1cc(O)c2c(c1O)C(=O)c1ccccc1C2=O`
# output FALSE

# input # lookup: test call for `COc1ccc([Se]c2ccc(OC)cc2)cc1`
# output FALSE

# input # lookup: test call for CCCCCCCCCCCCCCCC(=O)Nc1ccn(C2CCC(COP(=O)(O)OCC3OC(n4cc(F)c(=O)[nH]c4=O)CC3OC(C)=O)O2)c(=O)n1 (stereo not drawn)
# output FALSE

# input # lookup: test call for `COc1cc(C2C3=C(CCCC3=O)N(c3ccc(C)cc3)C3=C2C(=O)CCC3)c([N+](=O)[O-])cc1OC`
# output FALSE
